# tested target: GPR40 (Homo sapiens, UniProt O14842)
# Construct: expressed in transfected cells; host or cells: CHO cell line stably expressing GPR40 and aequorin
# Sequence (O14842 whole entry): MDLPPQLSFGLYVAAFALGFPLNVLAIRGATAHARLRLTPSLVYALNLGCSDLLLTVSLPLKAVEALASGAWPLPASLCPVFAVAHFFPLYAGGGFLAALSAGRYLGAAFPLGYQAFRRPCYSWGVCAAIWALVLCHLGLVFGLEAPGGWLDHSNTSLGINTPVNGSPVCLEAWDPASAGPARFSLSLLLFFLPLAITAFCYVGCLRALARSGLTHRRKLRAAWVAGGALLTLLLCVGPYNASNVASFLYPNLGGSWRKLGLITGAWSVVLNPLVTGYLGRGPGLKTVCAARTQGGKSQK
# protocol text: Aequorin Ca2+ flux assay in CHO cell line stably expressing GPR40
# Assay type: cell-based
# conditions: CHO-GPR40 stable cell line
Measured pEC50, listed per entry.
Please report pEC50 as the negative decimal logarithm of the molar concentration, giving only the number.

Study these solved cases before continuing.
>>> reported_measurement("CC#CC(CC(=O)O)c1ccc(OCc2ccc(-c3cccc(OC)c3)cc2)cc1 (racemic) [(±)-AM-8596]")
5.82
>>> reported_measurement("COc1ccc(F)c(-c2ccc(COc3cccc([C@@H](CC(=O)O)C4CC4)c3)cc2C2=CCCC2(C)C)c1")
6.80
>>> reported_measurement("CC[C@H](CC(=O)O)c1cccc(OCc2ccc(-c3cc(OC)ccc3F)c([C@@H]3CCCC3(C)C)c2)c1F")
6.89

Proceeding to the next molecule to report its pEC50.
// C/C=C/[C@H](CC(=O)O)c1ccc(OCc2ccc(-c3cc(OC)ccc3F)cc2)cc1 : pEC50 value = 5.62
